A collection of compounds and their measured Bliss excess
System: KMOE-2 (Acute Myeloid Leukemia);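 also: after 72 h of two-drug dosing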
Experiment description: Bliss excess, mean over the matrix (fraction); higher = more synergy
Property: Bliss excess

Compound | Property | Numeric value
CN(CCO)CC[C@H](CSc1ccccc1)Nc1ccc(S(=O)(=O)NC(=O)c2ccc(N3CCC([C@@H](O)c4ccccc4-c4ccc(Cl)cc4)CC3)cc2)cc1S(=O)(=O)C(F)(F)F [AZD4320] + C[C@@H](Nc1cc(F)cc(F)c1)c1cc(C(=O)N(C)C)cc2c(=O)cc(N3CCOCC3)oc12 [AZD8186] (first compound max 1 µM, 7x7, partner max 3 µM) | Bliss excess | 0.0407
COc1nnc2ccc(N3CCC(c4ccc(OCCN5CCN(C)C(=O)[C@H]5C)cc4)CC3)nn12 [AZD5153] + C[C@@H]1COCCN1C2=NC(=NC(=C2)C3(CC3)[S@](=N)(=O)C)C4=C5C=CNC5=NC=C4 [AZD6738] (first compound max 1 µM, 7x7, partner max 10 µM) | Bliss excess | 0.0743
COc1cccc(OCCCN)c1-c1cc(Nc2cnc(C#N)cn2)n[nH]1 [Prexasertib] + Cc1cc2ncnn2cc1Nc1ncc2c(n1)n(C1CCOCC1)c(=O)n2C [AZD7648] (first compound max 1 µM, 7x7, partner max 10 µM) | Bliss excess | 0.0172
Cc1cc2ncnn2cc1Nc1ncc2c(n1)n(C1CCOCC1)c(=O)n2C [AZD7648] + CCN(CCO)CCCOc1ccc2c(Nc3cc(CC(=O)Nc4cccc(F)c4)[nH]n3)ncnc2c1 [AZD2811] (first compound max 10 µM, 7x7, partner max 1 µM) | Bliss excess | 0.0325

---

System: JVM-3 (B-Cell Non-Hodgkin's Lymphoma)
Experiment description: combination Emax (second highest fraction inhibited in the dose matrix, 72 h); higher = more inhibition; extreme values may be limits of the assay
A collection of molecules and their measured combination Emax
Property: combination Emax

Molecule | Measured target | Numeric value
CN(C)CCCOc1ccc(-c2ccc3ncc4c(c3c2)n(C2CCOCC2)c(=O)n4C)cn1 [AZD0156] + C=CCn1c(=O)c2cnc(Nc3ccc(N4CCN(C)CC4)cc3)nc2n1-c1cccc(C(C)(C)O)n1 [AZD1775] (first compound max 1 µM, partner max 1 µM) | JVM-3 (B-Cell Non-Hodgkin's Lymphoma) | 0.895
Cc1cc2ncnn2cc1Nc1ncc2c(n1)n(C1CCOCC1)c(=O)n2C [AZD7648] + CCN(CCO)CCCOc1ccc2c(Nc3cc(CC(=O)Nc4cccc(F)c4)[nH]n3)ncnc2c1 [AZD2811] (first compound max 10 µM, 7x7, partner max 1 µM) | JVM-3 (B-Cell Non-Hodgkin's Lymphoma) | 0.592
CC1(C)CCC(CN2CCN(c3ccc(C(=O)NS(=O)(=O)c4ccc(NCC5CCOCC5)c([N+](=O)[O-])c4)c(Oc4cnc5[nH]ccc5c4)c3)CC2)=C(c2ccc(Cl)cc2)C1 [Venetoclax] + Cn1cnc2c(F)c(Nc3ccc(Br)cc3Cl)c(C(=O)NOCCO)cc21 [Selumetinib] (first compound max 1 µM, 7x7, partner max 3 µM) | JVM-3 (B-Cell Non-Hodgkin's Lymphoma) | 0.486

---

A collection of compounds and their measured combination Emax
Test system: EFM-19 (Breast Carcinoma)
Experiment description: combination Emax (second highest fraction inhibited in the dose matrix, 72 h); higher = more inhibition; extreme values may be limits of the assay

Compound | combination Emax
O=C(c1cc(Cc2n[nH]c(=O)c3ccccc23)ccc1F)N1CCN(C(=O)C2CC2)CC1 [Olaparib] + Cc1c2c(nn1C)CSCc1cc(n(C)n1)CSc1cc(c3ccccc3c1)OCCCc1c(C(=O)O)n(C)c3c-2c(Cl)ccc13 [AZD5991] (first compound max 10 µM, 7x7, partner max 1 µM) | 0.272
COc1nnc2ccc(N3CCC(c4ccc(OCCN5CCN(C)C(=O)[C@H]5C)cc4)CC3)nn12 [AZD5153] + C=CCn1c(=O)c2cnc(Nc3ccc(N4CCN(C)CC4)cc3)nc2n1-c1cccc(C(C)(C)O)n1 [AZD1775] (first compound max 1 µM, partner max 1 µM) | 0.573
C[C@@H](c1ccc2nccn2c1)n1nnc2ncc(-c3cnn(C)c3)nc21 [Savolitinib] + Cc1c2c(nn1C)CSCc1cc(n(C)n1)CSc1cc(c3ccccc3c1)OCCCc1c(C(=O)O)n(C)c3c-2c(Cl)ccc13 [AZD5991] (first compound max 1 µM, 7x7, partner max 1 µM) | 0.223
CC1(C)CCC(CN2CCN(c3ccc(C(=O)NS(=O)(=O)c4ccc(NCC5CCOCC5)c([N+](=O)[O-])c4)c(Oc4cnc5[nH]ccc5c4)c3)CC2)=C(c2ccc(Cl)cc2)C1 [Venetoclax] + C=CCn1c(=O)c2cnc(Nc3ccc(N4CCN(C)CC4)cc3)nc2n1-c1cccc(C(C)(C)O)n1 [AZD1775] (first compound max 1 µM, partner max 1 µM) | 0.489
CN(CCO)CC[C@H](CSc1ccccc1)Nc1ccc(S(=O)(=O)NC(=O)c2ccc(N3CCC([C@@H](O)c4ccccc4-c4ccc(Cl)cc4)CC3)cc2)cc1S(=O)(=O)C(F)(F)F [AZD4320] + C1CN(CCC1(C(=O)N[C@@H](CCO)C2=CC=C(C=C2)Cl)N)C3=NC=NC4=C3C=CN4 [Capivasertib] (first compound max 1 µM, 7x7, partner max 3 µM) | 0.87
